All values here come from ChEMBL document CHEMBL1201862.

GI50 values by entry
Test system: SF-295
assayRemarks: NCI tumour cell line growth inhibition, 48 h
Active and inactive are the calls of the source. Cut-off read from the data, not from the text of the source: active = GI50 up to about 1.1 µM and inactive = higher.

| compound | GI50 |
| --- | --- |
| Cn1/c(=N\S(=O)(=O)c2ccccc2)n(S(=O)(=O)c2ccccc2)c2ccccc21 | 62.1 µM (inactive) |
| O=C1C(Cl)N(c2ccc(Cl)cc2Cl)C1c1c[nH]c2ccccc12 (stereo unspecified) | > 100 µM (inactive) |
| OCN(CO)c1ccc2c(c1)Cc1cc(F)ccc1-2 | 15.3 µM (inactive) |
| Cc1oc2c(C)c3oc(=O)cc(C)c3cc2c1CN1C(=O)C2OCCOCCOCCOCCOCCO[C@H]2C1=O (stereo partly specified) | > 100 µM (inactive) |
| COc1ccc(OC(C(=O)O)c2ccccc2)c2c1CCCC2=O (stereo unspecified) | > 100 µM (inactive) |
| Oc1ccc(Cl)cc1-c1cc(-c2ccccc2)nc(S)n1 | 28.6 µM (inactive) |
| Nc1cc(C(=O)O)nc(O)n1 | > 100 µM (inactive) |
| O=c1[nH]nc(Cc2ccccc2)n1-n1cnnc1 | > 100 µM (inactive) |
| CCC(CCCC[C@H]1CC[C@@H]2CC(=O)C[C@H]12)OC (stereo partly specified) | > 100 µM (inactive) |
| Cn1c(=O)c2c(ncn2CCNC(CO)C(O)c2ccc([N+](=O)[O-])cc2)n(C)c1=O (stereo unspecified) | > 100 µM (inactive) |
| COC(=O)c1sc(C(=O)OC)c2c1C[S+]([O-])C2 | > 100 µM (inactive) |
